- Tested on: ACHN renal
- Assay: NCI-60 one-dose screen, 48 h
- Condition description: 10 µM unless noted
- Method: Growth inhibition of the ACHN human tumor cell line is measured as a screen for anti-cancer activity. Cells are grown in 96 well plates and exposed to the test compound for 48 hours. Compounds are tested at a single concentration, which is 10^-5 M for most compounds. The reported endpoint is percent growth (GI% or GIPRCNT), where numbers from 0 - 100% represent growth inhibition, and numbers from -100% - 0 represent cell death. For example, a value of 40 represents 60% growth inhibition. […]
The panel holds about 83,000 compounds, 20% with a hit somewhere; the sample as a whole holds those more often. Active and inactive are the calls of the source. Rule for the calls: active = growth percent below 10; inactive = the rest.
Please answer using one outcome listed in true (1) for active, false (0) for inactive

Recorded test outcome, item C[C@@H](Nc1ncnc2ccc(-c3cnc(N)nc3)cc12)c1ccc(F)cc1
false (0)

Same lookup for Cc1ccc(C(=O)/C(=C\c2ccc([N+](=O)[O-])cc2)S(=O)Cc2ccc(Cl)cc2)cc1 (stereo not drawn) , please.
false (0)

Same lookup for CN(C)CCC(=O)c1ccc([N+](=O)[O-])cc1 , please.
false (0)

Same lookup for O=C(CCN1CCCC1)Nc1ccc2c(NCCc3ccccc3)c3ccccc3nc2c1 , please.
false (0)

Same lookup for O=C(/C=C/c1ccc(F)cc1)c1ccc(NC(=O)N2CCN(c3cc4c(cc3F)c(=O)c(C(=O)O)cn4C3CC3)CC2)cc1 , please.
false (0)

Same lookup for COc1ccccc1NS(=O)(=O)c1cccc(C(=O)Nc2ccc(Br)cc2)c1 , please.
false (0)

Same lookup for CC1(C)c2[nH]c3ccccc3c2C[C@]2(C)[C@H]3C(=O)C=C4[C@@H]5C[C@@](C)(C(N)=O)CC[C@]5(C)CC[C@@]4(C)[C@]3(C)CC[C@@H]12 , please.
false (0)

Same lookup for C=C1C(=O)O[C@H]2[C@H]1CC/C(CNC(=O)/C=C/c1cccc(OC)c1)=C\CC[C@@]1(C)O[C@@H]21 , please.
true (1)

Same lookup for COC(=O)C(OC(C)=O)C(OC(C)=O)c1ccc(OC)c(OC)c1 (stereo not drawn) , please.
false (0)

Same lookup for CN1CCN(C(=O)[C@]23CCC(C)(C)C[C@H]2C2=CC[C@@H]4[C@@]5(C)C/C(=C/c6ccncc6)C(=O)C(C)(C)[C@@H]5CC[C@@]4(C)[C@]2(C)CC3)CC1 , please.
false (0)

Same lookup for COc1cc(/C=C\c2cc(/C=C\c3ccc(O)c(OC)c3)n(C(=O)COc3ccccc3)n2)ccc1O , please.
false (0)

Same lookup for CC(=O)Oc1ccc(/C=N/NC(N)=S)nc1 , please.
false (0)

Same lookup for O=C(/C=C/c1c(-c2ccc(Cl)cc2)nn(-c2ccccc2)c1C(F)(F)F)c1ccc(Cl)cc1 , please.
false (0)

Same lookup for Cc1ccc(S(=O)(=O)Nn2c3c(cc(-c4nc5ccccc5s4)c2=O)CCCCCC3)cc1 , please.
false (0)

Same lookup for Cc1cccc(NC(=O)Nc2ccc(-c3ccc4c(c3)NC(=O)/C4=C\c3ccc[nH]3)cc2)c1 , please.
false (0)

Same lookup for CN[C@@H](C)C(=O)N[C@H]1CCS[C@H]2CC(C)(C)[C@@H](C(=O)N[C@H]3c4ccccc4C[C@H]3OCC#CC#CCO[C@@H]3Cc4ccccc4[C@@H]3NC(=O)[C@H]3N4C(=O)[C@@H](NC(=O)[C@H](C)NC)CCS[C@H]4CC3(C)C)N2C1=O , please.
false (0)

Same lookup for NS(=O)(=O)c1ccc(CCN2C(=O)c3cc(Cl)c(Cl)cc3C2=O)cc1 , please.
false (0)

Same lookup for Nc1nc(Nc2ccccc2SSc2ccccc2Nc2nc(N)nc(-c3cccs3)n2)nc(-c2ccsc2)n1 , please.
false (0)
